Conditions Used: in ethyl acetate, 295.65 K
Readout: solubility (mole fraction)

Any idea what its solubility (mole fraction) is? The molecule is "O=C1c2cccc(Cl)c2C(=O)N1c1ccccc1" 0.00284

###

Conditions Used: in isopropanol, 305.65 K
Readout: solubility (mole fraction)
Give the value as a plain number.

Any idea what its solubility (mole fraction) is? The compound is "O=C1c2cccc(Cl)c2C(=O)N1c1ccccc1" 0.000208

###

Conditions Used: in 1,4-dioxane, 318.15 K
Readout: solubility (mole fraction)
Give the value as a plain number.

Any idea what its solubility (mole fraction) is? The compound is "O=C1c2cccc(Cl)c2C(=O)N1c1ccccc1" 0.0224

###

Conditions Used: in isopropanol, 315.65 K
Readout: solubility (mole fraction)
Give the value as a plain number.

Any idea what its solubility (mole fraction) is? The molecule is "O=C1c2cccc(Cl)c2C(=O)N1c1ccccc1" 0.000345

###

Conditions Used: in acetic acid, 295.65 K
Readout: solubility (mole fraction)
Give the value as a plain number.

Any idea what its solubility (mole fraction) is? The compound is "O=C1c2cccc(Cl)c2C(=O)N1c1ccccc1" 0.0013

###

Conditions Used: in isobutanol, 318.15 K
Readout: solubility (mole fraction)
Give the value as a plain number.

Any idea what its solubility (mole fraction) is? The compound is "O=C1c2cccc(Cl)c2C(=O)N1c1ccccc1" 0.000599

###

Conditions Used: in isobutanol, 308.15 K
Readout: solubility (mole fraction)

Any idea what its solubility (mole fraction) is? The molecule is "O=C1c2cccc(Cl)c2C(=O)N1c1ccccc1" 0.000341
